- Measurement target: Induced myeloid leukemia cell differentiation protein Mcl-1 (Homo sapiens) (UniProt Q07820)
- Sequence (Q07820 whole entry, looked up): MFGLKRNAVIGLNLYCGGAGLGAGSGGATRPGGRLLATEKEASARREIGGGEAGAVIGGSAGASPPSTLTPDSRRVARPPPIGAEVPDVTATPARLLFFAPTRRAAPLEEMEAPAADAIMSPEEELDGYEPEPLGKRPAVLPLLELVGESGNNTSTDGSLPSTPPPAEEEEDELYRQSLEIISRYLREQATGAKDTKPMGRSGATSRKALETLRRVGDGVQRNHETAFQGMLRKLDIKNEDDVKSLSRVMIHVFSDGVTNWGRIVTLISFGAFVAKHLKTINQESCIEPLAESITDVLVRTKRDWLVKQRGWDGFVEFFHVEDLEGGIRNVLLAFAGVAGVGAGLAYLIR
- Assay remarks: blockers of Bid binding to Mcl-1 – biochemical, TR-FRET, dose response (AID 1418)
- Stated conditions: Mcl-1/Bid peptide binding, TR-FRET (europium/Dy647), 2 hr
Activity calls are given as the source filed them. No rule for the calls is given here.
Outcome field: choose from 1 = active, -1 = inactive

Check out these entries, answers already filled in.
CCOC(=O)c1cc(C#N)c(SCC(=O)OC)[nH]c1=O : -1
CC(=O)Nc1cccc(NC(=O)Nc2ccc(C(C)=O)cc2)c1 : -1
O=[N+]([O-])c1cccc(S(=O)(=O)Nc2nc3ccccc3nc2Nc2cccc(S(=O)(=O)N3CCCCC3)c2)c1 : -1

Qu. Please indicate how the test categorized O=S(=O)(c1ccccc1F)N1CCN(Cc2nc3ccccc3[nH]2)CC1 .
Ans. -1

Qu. Please indicate how the test categorized O=C(O)[C@@H](c1ccccc1)N1Cc2ccccc2C1=O .
Ans. 1

Qu. Please indicate how the test categorized COc1cc(/C=C2/SC(N)=NC2=O)ccc1Oc1ccc([N+](=O)[O-])cc1[N+](=O)[O-] .
Ans. 1

Qu. Please indicate how the test categorized CCNc1ccc2noc3c2c1C(=O)c1ccccc1-3 .
Ans. 1

Qu. Please indicate how the test categorized CSc1nc(SCC(=O)O)c2sc3nc(-c4ccccc4)c4c(c3c2n1)CCC4 .
Ans. 1

Qu. Please indicate how the test categorized CN(C)c1ccc(-c2nnc(-c3ccc(S(=O)(=O)C(F)F)cc3)o2)cc1 .
Ans. 1

Qu. Please indicate how the test categorized Cc1cc(N)n(-c2ccc3ccccc3c2)n1 .
Ans. -1

Qu. Please indicate how the test categorized O=C(Nc1ccc(Cl)cc1)N1CCc2[nH]c3ccccc3c2C1 .
Ans. -1

Qu. Please indicate how the test categorized CN(CCO)S(=O)(=O)c1ccc2c(c1)C(=NO)c1cc(S(=O)(=O)N(C)CCO)ccc1-2 .
Ans. -1

Qu. Please indicate how the test categorized CN1C(=O)/C(=C/c2ccccc2OCc2cccc(F)c2)NC1=S .
Ans. -1

Qu. Please indicate how the test categorized Cc1ccc([N+](=O)[O-])cc1-c1ccc(/C=C(\C#N)c2[nH]nc(N)c2C#N)o1 .
Ans. 1

Qu. Please indicate how the test categorized O=C(N/N=C/c1ccc(-c2ccc(Cl)c(C(=O)O)c2)o1)c1cc2c(ccc3ccccc32)o1 .
Ans. 1

Qu. Please indicate how the test categorized COc1ccc(CCNC(=O)COC(=O)Cc2ccccc2)cc1 .
Ans. -1

Qu. Please indicate how the test categorized CCOc1ccccc1NC(=O)CN(C)S(=O)(=O)c1cccc2nsnc12 .
Ans. -1

Qu. Please indicate how the test categorized CCCOc1ccc(C(=O)NCC(c2ccco2)N(C)C)cc1OC (centres undefined) .
Ans. -1

Qu. Please indicate how the test categorized C=CCn1cc(/C=N/NC(=O)COc2cccc3cccnc23)c2ccccc21 .
Ans. 1

Qu. Please indicate how the test categorized CC(=O)OCCn1c2nc(=O)[nH]c(=O)c-2nc2cc(C)c(C)cc21 .
Ans. 1

Qu. Please indicate how the test categorized O=C(COc1ccc(/C=N/NC(=O)c2cc3ccccc3o2)cc1Br)Nc1ccccc1 .
Ans. 1

Qu. Please indicate how the test categorized CC(CCC(=O)Nc1nncs1)C(=O)O (centres undefined) .
Ans. -1

Qu. Please indicate how the test categorized CCOC(=O)c1ccc(NS(=O)(=O)N2CCCCCC2)cc1 .
Ans. -1

Qu. Please indicate how the test categorized CCN1C(=O)/C(=C/c2cccs2)SC1=Nc1ccc(OC)cc1 .
Ans. -1

Qu. Please indicate how the test categorized COc1cccc2c(=O)c(C/C=C(/C)Cl)c(C)[nH]c12 .
Ans. -1

====

- Measurement target: Induced myeloid leukemia cell differentiation protein Mcl-1 (Homo sapiens)
- Assay remarks: blockers of Bid binding to Mcl-1 – biochemical, TR-FRET, dose response (AID 1418)
- Stated conditions: Mcl-1/Bid peptide binding, TR-FRET (europium/Dy647), 2 hr
Active and inactive are the calls of the source. The rule behind the calls is not given here.
Outcome field: choose from active, inactive

Check out these entries, answers already filled in.
Cc1nnc(Sc2c(N)n(C)c(=O)[nH]c2=O)s1 : inactive
O=C(Nc1nnc(-c2ccco2)s1)C1CC1 : inactive
O=C(CN1CCN(CCN2C(=O)c3cccc4cccc(c34)C2=O)CC1)c1ccc(F)cc1 : inactive
Cc1ccc(-c2nn(C)c(=O)c3ccccc23)cc1CNC(=O)Cn1nc(-c2ccccc2)c2ccccc2c1=O : active

Please look at the following compound next.
Qu. Please indicate how the test categorized CCCc1nc2oc3cc(OC)ccc3c(=O)c2c(=O)n1CCc1ccccc1 .
Ans. inactive

====

- Measurement target: Induced myeloid leukemia cell differentiation protein Mcl-1 (Homo sapiens)
- Assay remarks: blockers of Bid binding to Mcl-1 – biochemical, TR-FRET, dose response (AID 1418)
- Stated conditions: Mcl-1/Bid peptide binding, TR-FRET (europium/Dy647), 2 hr
Activity calls are given as the source filed them. No rule for the calls is given here.
Experimental endpoint: IC50

Worked cases, answers included:
CC(C)(C)c1c(Cl)c(O)c(-c2ccccc2)c(=O)n1-c1ccccc1 : 0.68 µM
CCc1ccc(CCC(=O)Nc2ccc(C)cc2C)o1 : > 54 µM (inactive)
N#Cc1nc(COc2ccc(F)cc2)oc1N1CCN(Cc2ccccc2)CC1 : > 54 µM (inactive)
COc1ccc(-c2ccc(C#N)c(SCC(=O)Nc3sc4c(c3C#N)CCC4)n2)cc1OC : 0.67 µM
CCN(CC)c1ccc(NC(=O)Cn2ncc3c(C)n(Cc4ccccc4F)c(C)c3c2=O)c(C)c1 : 0.53 µM
CCOc1c(C(N)=O)c(-c2ccccc2)c2c(=O)[nH]c3ccccc3n12 : > 54 µM (inactive)

For each entry beneath this line, provide reported IC50.
1. COC(=O)c1c(NC(=O)c2cnccn2)sc2c1CCC2
2. Cc1nc(NC(=O)c2ccco2)sc1-c1csc(Nc2ccc(Cl)cc2Cl)n1
3. COC(=O)c1ccc(Oc2coc3cc(OCc4ccc([N+](=O)[O-])cc4)ccc3c2=O)cc1
4. O=C(CSc1nnc(-c2ccncc2)o1)NCc1ccccc1Cl
5. CCN1C(=O)/C(=c2\s/c(=C3\Sc4ccccc4N3C)c(=O)n2C)N(C)C1=S

Ans.
["> 54 µM (inactive)", "0.77 µM", "> 54 µM (inactive)", "> 54 µM (inactive)", "inactive"]

For each entry beneath this line, provide reported IC50.
1. O=c1c2ccccc2nc(/C=C/c2cccnc2)n1Cc1ccccc1
2. Cc1ccc2oc(C(F)(F)C(F)F)cc(=O)c2c1
3. Cc1cc(C)nc(N(C#N)S(=O)(=O)c2ccccc2Cl)n1
4. COCCn1cc(C(=O)N2CCC(C)CC2)c2c3ccccc3n(C)c2c1=O

Ans.
0.54 µM
inactive
> 54 µM (inactive)
inactive

For each entry beneath this line, provide reported IC50.
1. O=c1[nH]c(O)c(/C=C2/C=CC(c3cc(Cl)ccc3Cl)=N2)c(=O)[nH]1
2. O=c1n(S(=O)(=O)c2cccc3cccnc23)c2ccccc2n1S(=O)(=O)c1cccc2cccnc12
3. COc1cccc(Nc2nc(NCC3CCCO3)c3ccccc3n2)c1 (stereo not drawn)
4. O=C(Nc1sc2c(c1C(=O)O)CCC2)c1ccccc1

Ans.
1. 1.07 µM
2. > 54 µM (inactive)
3. > 54 µM (inactive)
4. > 54 µM (inactive)

====

- Measurement target: Induced myeloid leukemia cell differentiation protein Mcl-1 (Homo sapiens)
- Assay remarks: blockers of Bid binding to Mcl-1 – biochemical, TR-FRET, dose response (AID 1418)
- Stated conditions: Mcl-1/Bid peptide binding, TR-FRET (europium/Dy647), 2 hr
Calls of active or inactive are those of the source. The rule behind the calls is not given here.
Outcome field: choose from active, inactive

Qu. Please indicate how the test categorized CNC(=O)CN(C1CCCCC1)S(=O)(=O)c1ccc(OC)c(Cl)c1 .
Ans. inactive

Qu. Please indicate how the test categorized NC(N)=NS(=O)(=O)c1ccc(NC(=S)NC(=O)c2sc3ccccc3c2Cl)cc1 .
Ans. active

Qu. Please indicate how the test categorized CCOC(=O)CSc1nc(C2CC2)cc(-c2ccc(Cl)cc2)c1C#N .
Ans. inactive

Qu. Please indicate how the test categorized CCOC(=O)NC(=O)/C(C#N)=C/c1ccc(N(C)C)cc1 .
Ans. inactive

Qu. Please indicate how the test categorized COc1cccc(-c2csc(N3CCN(C(=S)Nc4cccc(Cl)c4)CC3)n2)c1 .
Ans. inactive

Qu. Please indicate how the test categorized O=C(CSc1ccccn1)Nc1ccc2c(c1)C(=O)c1ccccc1C2=O .
Ans. active

Qu. Please indicate how the test categorized Cc1ccccc1C(=O)NC(=S)Nc1sc2c(c1C#N)CCCC2 .
Ans. inactive

Qu. Please indicate how the test categorized Cc1ccc(C)c(OCC(=O)Nc2ccc3c(c2)OCO3)c1C .
Ans. inactive

Qu. Please indicate how the test categorized Cc1cc(C)c2c(c1)C1C=CCC1C(c1ccc(S(=O)(=O)N3CCOCC3)cc1)N2 (stereo unspecified) .
Ans. inactive

Qu. Please indicate how the test categorized O=c1c2ccccc2nc2n1CCC2 .
Ans. active

Qu. Please indicate how the test categorized COc1cccc(NC(=O)C2c3cc(OC)c(OC)cc3C(=O)N(C)C2c2cccnc2)c1 (stereo unspecified) .
Ans. inactive

Qu. Please indicate how the test categorized O=C(Nc1ccc(F)cc1)N1CCCN(c2ccc(C(F)(F)F)cn2)CC1 .
Ans. inactive

Qu. Please indicate how the test categorized COc1cc(-c2ccc(Nc3ccccc3C(=O)O)c(OC)c2)ccc1Nc1ccccc1C(=O)O .
Ans. active
